From: paper PMC4336329

Consider the following compounds; for each one, report its hERG current change (%, negative = inhibition) at 10uM.
measured-on: human ether-à-go-go-related gene (hERG) potassium channel (human, UniProt Q12809)
Sequence (Q12809 whole entry, looked up): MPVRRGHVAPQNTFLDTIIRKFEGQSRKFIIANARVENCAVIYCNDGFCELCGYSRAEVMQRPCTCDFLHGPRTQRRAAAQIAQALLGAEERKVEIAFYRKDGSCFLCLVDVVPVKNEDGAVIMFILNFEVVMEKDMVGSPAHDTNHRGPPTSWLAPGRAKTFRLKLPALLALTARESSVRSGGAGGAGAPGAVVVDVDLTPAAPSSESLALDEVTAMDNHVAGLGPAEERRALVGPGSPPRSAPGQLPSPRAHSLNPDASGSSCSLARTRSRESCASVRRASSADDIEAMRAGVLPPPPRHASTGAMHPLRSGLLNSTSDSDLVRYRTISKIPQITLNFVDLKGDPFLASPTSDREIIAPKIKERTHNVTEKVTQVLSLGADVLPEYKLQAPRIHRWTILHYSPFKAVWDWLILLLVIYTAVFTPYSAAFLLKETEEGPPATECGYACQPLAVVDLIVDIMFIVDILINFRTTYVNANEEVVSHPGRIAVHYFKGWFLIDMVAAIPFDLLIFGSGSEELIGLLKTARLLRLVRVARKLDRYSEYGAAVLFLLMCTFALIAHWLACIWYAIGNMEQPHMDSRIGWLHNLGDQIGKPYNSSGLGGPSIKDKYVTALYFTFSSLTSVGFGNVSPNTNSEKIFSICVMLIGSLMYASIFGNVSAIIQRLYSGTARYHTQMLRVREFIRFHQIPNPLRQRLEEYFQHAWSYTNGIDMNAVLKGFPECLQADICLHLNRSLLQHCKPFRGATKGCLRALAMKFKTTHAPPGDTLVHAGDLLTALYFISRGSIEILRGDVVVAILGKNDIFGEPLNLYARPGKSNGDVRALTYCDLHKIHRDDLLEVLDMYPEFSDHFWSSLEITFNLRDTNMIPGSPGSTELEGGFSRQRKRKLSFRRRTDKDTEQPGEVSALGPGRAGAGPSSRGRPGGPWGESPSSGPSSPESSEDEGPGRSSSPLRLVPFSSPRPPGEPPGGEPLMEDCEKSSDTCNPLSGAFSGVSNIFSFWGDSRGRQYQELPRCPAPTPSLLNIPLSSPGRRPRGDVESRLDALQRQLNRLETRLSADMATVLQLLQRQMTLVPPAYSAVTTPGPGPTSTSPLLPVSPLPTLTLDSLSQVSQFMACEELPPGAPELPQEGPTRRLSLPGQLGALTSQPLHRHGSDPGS
measurement-protocol: primary screen, population patch clamp on CHO cells stably expressing hERG; higher = less effect of the substance;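 also: peak tail current of the secondary pulse compared with the same well before compound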
Experimental: Briefly, Chinese hamster ovary (CHO) cells stably expressing the hERG channel were dislodged from tissue culture flasks and dispensed into PPC plates. […] During the recording, background leak currents were estimated by a 100 ms step to -80 mV from an initial holding potential of -70 mV and subtracted from the subsequent current measurement. The campaign was conducted in two phases using slight differences in recording protocol. […]
Screen size: about 310,000 compounds; about 14,000 (4.5%) showed an effect of 50% or more. Effects have a minus sign here. The entries come from a sample that favours strong results as a whole.
One number for each entry, in %.

Here are 6 compounds together with their reported answers.
> print(dat)
                                   compound  readout.number
1  O=C(c1ccco1)N1CCN(C(=O)c2cn(-c3ccccc3)nc2-c2ccccc2)CC1           -86.5
2           O=C(NC1CCCCC1)c1n[nH]c2c1CCCCC2            2.43
3  N/C(Cc1ccccc1Sc1ccccc1)=N\O.O=C(O)/C=C\C(=O)O           -22.2
4  O=C(c1cn(-c2ccccc2)nc1-c1ccccc1)N1CCOCC1            -4.6
5         COc1ccc(OCC(=O)N/N=C/c2ccncc2)cc1            17.9
6  O=C(OCC(=O)N1CCN(C(=O)c2ccco2)CC1)c1ccccc1O           -18.2

State recorded hERG current change (%, negative = inhibition) at 10uM for all listed compounds.
1. CCS(=O)(=O)N1CCN(S(=O)(=O)c2ccc3c(c2)OCCO3)CC1
2. O=C(OCC(=O)N1CCN(C(=O)c2ccco2)CC1)c1cn(-c2ccccc2)nc1-c1ccccc1
3. CC(Cc1ccccc1Sc1ccccc1)N(C)C.O=C(O)/C=C\C(=O)O (stereo not shown)

1: 17.5; 2: -67; 3: -69.5

// lookup hERG current change (%, negative = inhibition) at 10uM for Cc1cnc(C(=O)OCC(=O)N2CCN(C(=O)c3ccco3)CC2)cn1
-8.85

---

measured-on: human ether-à-go-go-related gene (hERG) potassium channel (human)
measurement-protocol: primary screen, population patch clamp on CHO cells stably expressing hERG; higher = less effect of the substance
Experimental: Briefly, Chinese hamster ovary (CHO) cells stably expressing the hERG channel were dislodged from tissue culture flasks and dispensed into PPC plates. […] During the recording, background leak currents were estimated by a 100 ms step to -80 mV from an initial holding potential of -70 mV and subtracted from the subsequent current measurement. The campaign was conducted in two phases using slight differences in recording protocol. […]
Hit rate of the full screen: of about 310,000 compounds, about 14,000 (4.5%) showed an effect of 50% or more. The effect is printed as a negative number. This is one part of a sample in which strong results are shown more often than they occur.
endpoint-label: hERG current change (%, negative = inhibition) at 10uM (%)
Answers are plain numbers, in %.

State recorded hERG current change (%, negative = inhibition) at 10uM for all listed molecules.
1. N#Cc1ccc(S(=O)(=O)N2CCCN(c3ccc(C(F)(F)F)cn3)CC2)cc1
2. O=S(=O)(c1ccc(Cl)cc1)N1CCCN(c2nc3ccc(Cl)cc3s2)CC1
3. CCn1c(SCC(=O)N2CCN(c3ccccc3)CC2)nc2c(c1=O)SC(C)C2 (centres unmarked)
4. CCc1cccc(NC(=O)C2CCCN(c3ncnc4c3nc3n4CCCCC3)C2)c1 (centres unmarked)

-73.9
11.8
-48.2
-46.4

State recorded hERG current change (%, negative = inhibition) at 10uM for all listed molecules.
1. O=[N+]([O-])c1ccc(C(O)CN2CCN(C/C=C/c3ccccc3)CC2)cc1 (centres unmarked)
2. COc1ccc(-c2nc(NC(C)=O)sc2-c2ccccc2)cc1
3. COCCn1c(SCC(=O)N2CCN(c3ccccc3)CC2)nc2c(c1=O)SC(C)C2 (centres unmarked)
4. CC(=O)c1cccc(OCC(=O)N2CCN(c3ccc(C(F)(F)F)cn3)CC2)c1

1. -76.9
2. 34.7
3. -58.8
4. -16.3

State recorded hERG current change (%, negative = inhibition) at 10uM for all listed molecules.
1. O=C(O)COCC(=O)N1CCCN(c2ccc(C(F)(F)F)cn2)CC1
2. O=S(=O)(c1ccc(S(=O)(=O)N2CCN(C/C=C/c3ccccc3)CC2)cc1)N1CCCC1
3. C/[N+]([O-])=C\c1coc2ccccc2c1=O
4. Cc1nc2ccccn2c1C(=O)CSc1ccc(Cl)cc1Cl
5. CCOC(=O)c1cc(-c2ccccc2)sc1NC(=O)C(C)C

1: 14.3; 2: 11.6; 3: -1.4; 4: -4.24; 5: 13.8

State recorded hERG current change (%, negative = inhibition) at 10uM for all listed molecules.
1. COc1ccc(OC)c(CNC(=O)C2CCCN(c3ncnc4c3nc3n4CCCCC3)C2)c1 (centres unmarked)
2. COc1ccc(OC)c(CCNC(=O)C2CCN(c3ncnc4c3nc3n4CCCCC3)CC2)c1
3. CCOc1ccccc1CNC(=O)C1CCCN(c2ncnc3c2nc2n3CCCCC2)C1 (centres unmarked)
4. Cc1ccc(NCC(=O)N/N=C\c2cccc(O)c2)cc1
5. CCN=C1S/C(=C\c2cn(C(C)=O)nc2-c2ccccc2)C(=O)N1CC
6. O=S(=O)(c1ccc(C(F)(F)F)cc1)N1CCCN(c2ccc(C(F)(F)F)cn2)CC1
7. Cc1cc(C)cc(OCc2ccc(C(=O)NN)o2)c1

1: -59; 2: -0.169; 3: -51.6; 4: 1.98; 5: 8.23; 6: 5.3; 7: 14.2

---

measured-on: human ether-à-go-go-related gene (hERG) potassium channel (human, UniProt Q12809)
measurement-protocol: primary screen, population patch clamp on CHO cells stably expressing hERG; higher = less effect of the substance
The whole screen tested about 310,000 compounds, of which about 14,000 (4.5%) showed an effect of 50% or more. The effect is printed as a negative number. Shown is part of a subset that was picked to be rich in strong results.
endpoint-label: hERG current change (%, negative = inhibition) at 10uM (%)
Numbers only, in %.

> print(dat)
                                   compound  readout.number
1  CCOC(=O)Cc1csc(NC(=O)NC2(C(F)(F)F)Oc3ccccc3O2)n1            5.19

State recorded hERG current change (%, negative = inhibition) at 10uM for all listed compounds.
1. COc1cc(OC)cc(C(=O)NCC(=O)OC2CCCCC2=O)c1 (stereo not drawn)
2. CC(C)C[C@@H](C(=O)N[C@@H](C(=O)O)c1ccccc1)N1C(=O)N2CCc3c([nH]c4ccccc34)[C@@]2(C)C1=O
3. O=C(COc1ccc([N+](=O)[O-])cc1)NCc1ccccc1
4. CNC(=O)c1c(C)nn(-c2ccc(F)c(Cl)c2)c1-c1cc(C)on1
5. Brc1ccc(OCCN2CCOCC2)cc1
6. CC1CCCN(CCOc2ccc(Br)cc2)C1 (stereo not drawn)
7. COc1ccc(CCNC(=O)COc2ccc([N+](=O)[O-])cc2)cc1
8. O=C1CCCCCN1Sc1ccccc1

[-27.6, -6.67, -38.9, 4.71, 4.54, -51.3, -31.1, 12]

---

Consider the following compounds; for each one, report its hERG current change (%, negative = inhibition) at 10uM.
measured-on: human ether-à-go-go-related gene (hERG) potassium channel (human, UniProt Q12809)
measurement-protocol: primary screen, population patch clamp on CHO cells stably expressing hERG; higher = less effect of the substance
Among all 310,000 compounds or so, about 14,000 (4.5%) showed an effect of 50% or more. Effects have a minus sign here. Only a selection was taken, and strong results are over-represented in it overall.
Answers are plain numbers, in %.

Here are 4 compounds together with their reported answers.
> print(dat)
                         compound.structure                               measured.on  readout.number
1               Cc1ccc(CNCc2ccccc2Cl)cc1.Cl  human ether-à-go-go-related gene (hERG) potassium channel (human, UniProt Q12809)           -7.02
2            CCOCCCNCc1ccc(OCc2ccccc2Cl)cc1  human ether-à-go-go-related gene (hERG) potassium channel (human, UniProt Q12809)           -46.9
3  O=C(c1ccc(OC2CCN(Cc3cccc(F)c3)CC2)cc1)N1CCCCC1  human ether-à-go-go-related gene (hERG) potassium channel (human, UniProt Q12809)           -23.4
4  CC(C)n1cc(CN2CCC(Oc3ccc(C(=O)N4CCCC4)cc3)CC2)cn1  human ether-à-go-go-related gene (hERG) potassium channel (human, UniProt Q12809)           -9.96

State recorded hERG current change (%, negative = inhibition) at 10uM for all listed compounds.
1. COc1ccccc1N1CCN(C(=O)COc2ccc(Cl)cc2)CC1
2. CCc1ccc(CN2CCC(Oc3ccc(C(=O)N4CCCCC4)cc3)CC2)cc1
3. CN(CC(=O)NCc1ccccc1)Cc1ccc(Cl)cc1
4. C=CCOc1ccccc1CN1CCC(Oc2ccc(C(=O)N3CCCC3)cc2)CC1
5. CCn1cc(CN2CCC(Oc3ccc(C(=O)N4CCCCC4)cc3)CC2)cn1
6. O=C(c1ccc(OC2CCN(Cc3ccc(C(F)(F)F)cc3)CC2)cc1)N1CCCCC1
7. CCc1ccc(-c2csc(NC(=O)c3cccnc3)n2)cc1

[-68.5, -78.4, -22.9, -41.8, -5.09, -57.2, -3.93]

State recorded hERG current change (%, negative = inhibition) at 10uM for all listed compounds.
1. CC(C)n1cc(CN2CCC(Oc3ccc(C(=O)N4CCCCC4)cc3)CC2)cn1
2. CC(=O)c1ccc(OCC(=O)NCc2ccc(F)cc2)cc1
3. Cc1ccc(OCC(=O)N2CCN(Cc3cccnc3)CC2)cc1.O=C(O)C(=O)O
4. CCOc1ccc(CN(C)CC(=O)NCc2ccccc2)cc1
5. CN(CC(=O)NCCc1ccc(F)cc1)Cc1ccccc1
6. Cc1ccc(OCC(=O)N2CCN(Cc3ccc4c(c3)OCO4)CC2)cc1.O=C(O)C(=O)O
7. Cc1onc(-c2ccccc2)c1C(=O)OCC(=O)NC(=O)c1ccccc1
8. NS(=O)(=O)c1ccc(NC(=O)COC(=O)CSc2n[nH]c(-c3ccccc3)n2)cc1

-31.6
-11.5
17.7
-76.1
-2.73
-15.7
-31.1
12

State recorded hERG current change (%, negative = inhibition) at 10uM for all listed compounds.
1. CCOc1ccc(N(CC(=O)NC(C)(C)C)C(=O)c2ccco2)cc1
2. OCCNCCCCOc1ccc(F)cc1

1. -1.84
2. 4.18
